System: EV71
Format: cell-based, enterovirus 71
Conditions: RD cells, EV71 0.1 MOI, 24 h; read-out: IC50 against EV71 by CCK8 method
No end group written: not given here.
endpoint-name: IC50 (nM)
One number for each entry, in nM.

Entry under test: YGRKKRRQRRRGSGEEVRQYCR [ER] . Its IC50 was 1260

----------
Assay: Cytotoxicity by CCK-8 in RD cells
Type: cell-based
Conditions: human, RD cells, 200 μM, 24 h, CCK-8 4 h (Example 18); read-out: Cell viability (%)
No end group written: not given here.
Could you please report measured viability at 24 h, 200 µM for the items listed next?
Numbers only, in %.

>>> numeric_result("YGRKKRRQRRRGSGEAVREYCKEK [BP10]")
79.7

With those in mind, consider the next sequence.
Entry under test: YGRKKRRQRRRGSGEAVREYCK [BP8] . Its viability at 24 h, 200 µM was 88.9
